- Test system: A498 renal
- METHOD DESCRIPTION: NCI tumour cell line growth inhibition, 48 h
EXPERIMENTAL READOUT: GI50

INSERT INTO assay_data (given_smiles, system, obs_value) VALUES
  ('Nc1nc(Nc2cccnc2)sc1C(=O)c1ccccc1F', 'A498 renal', '2.59 µM'),
  ('COc1ccc2[nH]c3c4[nH]c5ccc(OC)cc5c4c4c(c3c2c1)C(=O)NC4=O', 'A498 renal', '7.36 µM'),
  ('Cc1cc(C(=O)Nc2ccc3cc(CN4CCOCC4)ccc3n2)c(C)n1-c1ccccc1', 'A498 renal', '3.09 µM'),
  ('N#Cc1cc(-c2cc3ccccc3o2)oc1N', 'A498 renal', '1.76 µM'),
  ('Cc1ccc(N=C/C=C(\Nc2ccc(C)cc2)c2ccc(Cl)cc2)cc1', 'A498 renal', '16.8 µM');

Can you give me GI50 for all of these, one by one?
1. O=C1/C(=C(/c2ccccc2)N2CCOCC2)Cc2ccccc21
2. CN1CCN(CCCNc2nc3ccc(Oc4ccc(NC(=O)Nc5cc(C(F)(F)F)ccc5F)cc4)cc3[nH]2)CC1

1. 5.19 µM
2. 2.93 µM
